Where these numbers come from: ChEMBL document CHEMBL1961873

tested_on: Receptor tyrosine-protein kinase erbB-4 (Homo sapiens)
applied_conditions: at 1 µM;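 also: each value is a mean percent inhibition of ERBB4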
parameter: inhibition (%)
# number only, unit % dropped from output

Given the compound "Cc1ccc(C(=O)NC2CCCCC2)cc1-c1ccc(C(=O)NCC2CC2)cc1" , what is its reported inhibition?
17.9

Given the compound "Nc1nc(-c2ccc3c(c2)C(=Cc2cc(Br)c(O)c(Br)c2)C(=O)N3)cs1" , what is its reported inhibition?
-0.4

Given the compound "COc1ccc(-c2nn3ncccc3c2-c2ccnc(Nc3ccc(Cl)c(C(F)(F)F)c3)n2)cc1" , what is its reported inhibition?
51.5

Given the compound "COC(=O)Nc1nc2cc(Oc3ccc(NC(=O)Nc4cccc(C(=O)O)c4)cc3)ccc2[nH]1" , what is its reported inhibition?
0.22

Given the compound "Fc1cccc(COc2ccc(Nc3ncnc4sc(-c5cccs5)cc34)cc2Cl)c1" , what is its reported inhibition?
31.8
